# System: OVCAR-8 ovarian
# assay-comment: NCI-60 one-dose screen, 48 h (100 = growth as untreated, 0 = no growth, -100 = all killed)
# condition-details: 10 µM unless noted
Compounds without any hit were thinned out: in the full panel of roughly 83,000, 20% have a hit.
Exercise: for every item that follows, state its recorded growth.
// units = %; emit number, no label

Query block: Look up growth: N#Cc1c(N)nc(Nc2nc3ccccc3[nH]2)nc1-c1ccc(Cl)cc1
Result block: 102

Query block: Look up growth: CC1=C[C@@H]2c3c(c(O)c(O)c4oc5cc(O)cc(O)c5c(=O)c34)[C@@H](c3cc(O)c(O)c4oc5cc(O)cc(O)c5c(=O)c34)[C@@H]2C(C)(C)C1
Result block: 7.34

Query block: Look up growth: CCCCCCNc1nc(N2CCOCC2)c2[nH]c(NCCCCCC)nc2n1
Result block: -67.7

Query block: Look up growth: O=c1oc2ccc3ccccc3c2cc1-c1ccnc2[nH]c(=S)[nH]c(=O)c12
Result block: 99.8

###

# Test system: COLO 205 colon
# assay-comment: NCI-60 one-dose screen, 48 h (100 = growth as untreated, 0 = no growth, -100 = all killed)
# condition-details: 10 µM unless noted
About 83,000 compounds went through this panel and 20% of them were active in at least one assay; those are over-represented in the sample as a whole.
measure-name: growth (%)
// units = %; emit number, no label

Query block: Look up growth: N#Cc1c(N)nc(Nc2nc3ccccc3[nH]2)nc1-c1ccc(Cl)cc1
Result block: 94.7

Query block: Look up growth: CN(C)CCOC(=O)C(C)(C)C
Result block: 116

Query block: Look up growth: CCCCCCCCC(=O)Nc1ccc(O)cc1
Result block: 94.9

Query block: Look up growth: C/C(=C\c1ccc2ccccc2c1)[N+](=O)[O-]
Result block: -26.9

Query block: Look up growth: CCCCCCCCCCC1OC(C)CC(C)O1 (stereo unspecified)
Result block: 105

Query block: Look up growth: Nc1cc(N)c2nc(-c3ccccc3)c(NCCc3ccc(Cl)c(Cl)c3)nc2c1
Result block: -62.4

Query block: Look up growth: CCCCN(CCCC)CC(O)CN(CC)CC (stereo unspecified)
Result block: 99.3

Query block: Look up growth: CCOC(=O)CNS(=O)(=O)CC(=O)c1ccccc1
Result block: 130

Query block: Look up growth: O=c1[nH]c2cc(O)ccc2n2cc3c(F)cccc3c12
Result block: 66.2

Query block: Look up growth: O=Nc1ccc(O)c2ccccc12
Result block: 21.9

Query block: Look up growth: Cc1nc2c(nnn2-c2ccccc2)c2nc(-c3ccc(Cl)cc3)oc(=O)c12
Result block: 120

Query block: Look up growth: CC(=O)/C(=C\c1c(-c2ccccc2)[nH]c2ccccc12)S(=O)(=O)c1ccccc1
Result block: 12

Query block: Look up growth: CC1=C(C)C[C@]2(C(=O)O[C@H]3CCCC[C@@H]32)[S@](=O)C1
Result block: 108

Query block: Look up growth: O=S(=O)(O)c1ccc2c(c1)Sc1cc(S(=O)(=O)O)ccc1O2
Result block: 111

Query block: Look up growth: COc1cc2c(c3c1c(=O)c1cccc(F)c1n3C)C=CC(C)(C)O2
Result block: 102

Query block: Look up growth: O=C(Nc1ccc(Cl)cn1)C1(c2ccccc2)CCCCC1
Result block: 103

Query block: Look up growth: CCCCCCC(C(=O)OCC)(C(=O)OCC)C1CCCCCC1
Result block: 102

Query block: Look up growth: CC/C(=N\Nc1nc2ccccc2n1C)c1ccccn1
Result block: 21.9

Query block: Look up growth: O=C(/C=C1\C(=O)N(Cc2ccc([N+](=O)[O-])cc2)c2ccccc21)c1ccc(OCCN2CCCCC2)cc1
Result block: -49.5

Query block: Look up growth: COc1ccc(C(=O)NCCNc2nccc(-c3c(-c4ccc(F)cc4)nc4sccn34)n2)cc1
Result block: 47

Query block: Look up growth: COC(=O)c1ccc2[nH]c(O)c(C(=Nc3ccc(N(C)C(=O)CN4CCN(C)CC4)cc3)c3ccc4c(c3)OCO4)c2c1
Result block: -54.4

###

# System: UO-31 renal
# assay-comment: NCI-60 one-dose screen, 48 h
# condition-details: 10 µM unless noted
This is part of a sample that, as a whole, favours compounds with a hit. Of some 83,000 tested, about 20% had one in any assay. Active and inactive are the calls of the source. How the source made its calls: active means growth percent below 10; inactive means the rest.
Choose the fitting class; nothing outside active, inactive is accepted.

Query block: State the result this test recorded for Cc1c([C@H](C(Cl)Cl)[C@H](O)[C@H]2C[C@H](C)C(=O)O2)ccc2c1C(=O)[C@H]1[C@H]2C[C@@H](Br)[C@@]23O[C@@H](CO[C@H]2O)CC13C (stereo partly specified) .
Result block: inactive

Query block: State the result this test recorded for O=C(Nc1ccc(-n2cc(-c3ccncc3)c(-c3ccc(Cl)c(O)c3)n2)cc1)c1ccc(Cl)c(Cl)c1 .
Result block: inactive

Query block: State the result this test recorded for Nc1nc2c(c3ncncc13)C(c1cccc(C(F)(F)F)c1)Cc1ncncc1-2 (stereo unspecified) .
Result block: inactive

Query block: State the result this test recorded for CC1(C)CC(=O)C2=C(C1)Oc1nc(N)c(C#N)c(N)c1C2c1ccc(F)cc1 (stereo unspecified) .
Result block: inactive

Query block: State the result this test recorded for O=C(Nc1ccc(-n2cc(-c3ccncc3)c(-c3ccc(Cl)c(O)c3)n2)cc1)Nc1ccc(Cl)c(C(F)(F)F)c1 .
Result block: active

Query block: State the result this test recorded for CCn1cnc(C[C@H](NC(=O)[C@@H](NC(=O)Nc2cc(C(F)(F)F)cc(C(F)(F)F)c2)C(C)C)C(=O)OC)c1 .
Result block: active

Query block: State the result this test recorded for Cc1nc(N)sc1C(=O)NCCO .
Result block: inactive

Query block: State the result this test recorded for CCN(CC)CCCNc1c2ccc(Cl)cc2nc2ccc(OC)cc12 .
Result block: active

Query block: State the result this test recorded for O=C(N/N=C\c1ccc(-c2ccc(Br)cc2)o1)c1cc2oc(-c3cccc(C(F)(F)F)c3)cc2[nH]1 .
Result block: inactive

Query block: State the result this test recorded for CCOC(=O)c1sc(NS(=O)(=O)c2ccccc2)nc1C .
Result block: inactive

Query block: State the result this test recorded for COc1ccc(-c2nc(SCC(C)C)nc(Nc3ccc([N+](=O)[O-])cc3)c2C#N)cc1 .
Result block: inactive

Query block: State the result this test recorded for O=C(CCC(=O)N(CCO)CCO)N(CCO)CCO .
Result block: inactive

Query block: State the result this test recorded for CCCCCCCCCCCCCCCCC(=O)O.CCCCCCCCCCCCCCCCCC(=O)O.CCCCCCCCCCCCCCCCCC(=O)O.CCCCCCCCCCCCCCCCCC(=O)O.CCCCCCCCCCCCCCCCCC(=O)O.CO[CH-]OC12COC1CC(O)C1(C)C(O)C(OC(C)O)C3=C(C)C(OC(=O)C(O)C([NH-])c4ccccc4)CC(O)(C(OC(=O)c4ccccc4)C21)C3(C)C.[Cu+].[Zn].[Zn].[Zn].[Zn].[Zn] (stereo unspecified) .
Result block: inactive

Query block: State the result this test recorded for COc1ccc2oc(=O)cc(CN3C(=O)S/C(=C\c4ccc(Cl)cc4)C3=O)c2c1 .
Result block: inactive

Query block: State the result this test recorded for CC(C)OC(=O)Nn1cnc2ccccc21 .
Result block: inactive

Query block: State the result this test recorded for OCCN1CCN(CC/C=C2/c3ccccc3Sc3ccc(C(F)(F)F)cc32)CC1 .
Result block: inactive

###

# System: NCI-H522 lung
# assay-comment: NCI-60 one-dose screen, 48 h
# condition-details: 10 µM
Compounds without any hit were thinned out: in the full panel of roughly 83,000, 20% have a hit. Calls of active or inactive are those of the source. The calls were made as follows: active = growth percent below 10; inactive = the rest.
Choose the fitting class; nothing outside active, inactive is accepted.

Query block: State the result this test recorded for CC(=O)CCS(=O)c1ccccc1 (stereo not drawn) .
Result block: inactive

Query block: State the result this test recorded for Cc1ccc(S(=O)(=O)Nc2cccc(Cn3c(=O)[nH]c4ccc(Oc5ncccn5)cc4c3=O)c2)cc1 .
Result block: inactive

Query block: State the result this test recorded for COc1ccc(-c2cn3ccnc3c(-c3ccc4ncn(C5CCCCC5)c4c3)n2)cc1 .
Result block: active

###

# Tested on: NCI/ADR-RES ovarian
# assay-comment: NCI-60 one-dose screen, 48 h (100 = growth as untreated, 0 = no growth, -100 = all killed)
# condition-details: 10 µM unless noted
The panel holds about 83,000 compounds, 20% with a hit somewhere; the sample as a whole holds those more often.
Define the label as 1 (yes) when growth is strictly less than 90% and as 0 (no) in all remaining cases.

Query block: In the record for O=C(Cc1ccccc1[N+](=O)[O-])c1ccc2c(c1)OCO2 , is growth less than 90%?
Result block: 0 (no)

Query block: In the record for OCC(O)C(O)CC1SCCS1 (configuration not stated) , is growth less than 90%?
Result block: 0 (no)

Query block: In the record for O=C(Nn1cnc2ccccc21)N1CCCC1 , is growth less than 90%?
Result block: 0 (no)

Query block: In the record for O=C(C(=O)N1CCOCC1)c1ccc(O[C@H]2O[C@H](CO)[C@@H](O)[C@H](O)[C@@H]2O)cc1 , is growth less than 90%?
Result block: 0 (no)

Query block: In the record for O=C1C(Cl)=C(Nc2ccc(Nc3ccccc3)c(NC3=C(Cl)C(=O)c4ccccc4C3=O)c2)C(=O)c2ccccc21 , is growth less than 90%?
Result block: 1 (yes)

Query block: In the record for CCS(=O)(=O)OCCO[C@H]1Cc2cc3ccc(=O)oc3cc2OC1(C)C , is growth less than 90%?
Result block: 0 (no)

Query block: In the record for Cc1ccc(OCCn2ccc(=O)n(CCOc3ccc(Cl)cc3C(=O)c3cc(C)cc(C)c3)c2=O)cc1 , is growth less than 90%?
Result block: 1 (yes)

Query block: In the record for CCCCCCCCCCCCCCCCCC1=NCCN1CCNC(C)=O , is growth less than 90%?
Result block: 0 (no)

Query block: In the record for NC(CSC(c1ccccc1)(c1ccccc1)c1ccccc1)C(=O)NCC(=O)O (configuration not stated) , is growth less than 90%?
Result block: 0 (no)

Query block: In the record for COc1ccc(CNCCCN2C(=O)c3ccc4c5c(ccc(c35)C2=O)C(=O)N(CCCNCc2ccc(OC)c(OC)c2OC)C4=O)c(OC)c1OC , is growth less than 90%?
Result block: 1 (yes)

Query block: In the record for CCC(C)(C)c1ccc(OCCCCCCN2CCNCC2)cc1 , is growth less than 90%?
Result block: 1 (yes)

Query block: In the record for C=C(NC(=O)[C@H](C(C)C)N(C)c1cccc2[nH]ccc12)C(=O)OC , is growth less than 90%?
Result block: 0 (no)

Query block: In the record for [2H]c1nc(=Nc2cc(NC(=O)C=C)c(N(C)CCN(C)C)cc2OC)[nH]c(-c2cn(C([2H])([2H])[2H])c3ccccc23)c1[2H] , is growth less than 90%?
Result block: 1 (yes)

Query block: In the record for C[n+]1c2ccccc2c(Nc2ccc(NS(=O)(=O)CCCCN=C(N)N)cc2)c2ccc(N)cc21 , is growth less than 90%?
Result block: 0 (no)

Query block: In the record for COc1ccc(/C=C(/C(=O)N2CCCCC2)c2cc(OC)c(OC)c(OC)c2)cc1 , is growth less than 90%?
Result block: 1 (yes)

Query block: In the record for Cc1ccc(C(=O)NN)cc1 , is growth less than 90%?
Result block: 0 (no)

Query block: In the record for CCOC(=O)CNS(=O)(=O)CC(=O)c1ccccc1 , is growth less than 90%?
Result block: 0 (no)

Query block: In the record for O=Nc1ccc(O)c2ccccc12 , is growth less than 90%?
Result block: 1 (yes)
